Tested on: nine human tumor cell lines
run description: Average antiproliferative activity over the tumor cell line panel (NCI criteria)
Format: cell-based
condition notes: weak 1.1-1.5, moderate 0-1.1, potent <0, inactive >1.5
quantity: Cytostatic activity classified in words by NCI criteria on mean logGI50

# compound, obs value
records = [
    ("COc1cc2c(cc1O)C1=C(CC2)C(C)(C)OCC1C (stereo not drawn)", "weak"),
    ("CC1COC(C)(C)C2=C1c1cccc(O)c1CC2 (stereo not drawn)", "inactive"),
    ("CC1COC(C)(C)C2=C1c1cc(O)ccc1CC2 (stereo not drawn)", "weak"),
    ("CC1COC(C)(C)C2=C1c1ccc(O)cc1CC2 (stereo not drawn)", "inactive"),
    ("COc1cc2c(cc1OC)C1=C(CC2)C(C)(C)OCC1C (stereo not drawn)", "inactive"),
]
